System under test: AXL (Homo sapiens (Human), UniProt P30530)
Sequence (P30530 26-894): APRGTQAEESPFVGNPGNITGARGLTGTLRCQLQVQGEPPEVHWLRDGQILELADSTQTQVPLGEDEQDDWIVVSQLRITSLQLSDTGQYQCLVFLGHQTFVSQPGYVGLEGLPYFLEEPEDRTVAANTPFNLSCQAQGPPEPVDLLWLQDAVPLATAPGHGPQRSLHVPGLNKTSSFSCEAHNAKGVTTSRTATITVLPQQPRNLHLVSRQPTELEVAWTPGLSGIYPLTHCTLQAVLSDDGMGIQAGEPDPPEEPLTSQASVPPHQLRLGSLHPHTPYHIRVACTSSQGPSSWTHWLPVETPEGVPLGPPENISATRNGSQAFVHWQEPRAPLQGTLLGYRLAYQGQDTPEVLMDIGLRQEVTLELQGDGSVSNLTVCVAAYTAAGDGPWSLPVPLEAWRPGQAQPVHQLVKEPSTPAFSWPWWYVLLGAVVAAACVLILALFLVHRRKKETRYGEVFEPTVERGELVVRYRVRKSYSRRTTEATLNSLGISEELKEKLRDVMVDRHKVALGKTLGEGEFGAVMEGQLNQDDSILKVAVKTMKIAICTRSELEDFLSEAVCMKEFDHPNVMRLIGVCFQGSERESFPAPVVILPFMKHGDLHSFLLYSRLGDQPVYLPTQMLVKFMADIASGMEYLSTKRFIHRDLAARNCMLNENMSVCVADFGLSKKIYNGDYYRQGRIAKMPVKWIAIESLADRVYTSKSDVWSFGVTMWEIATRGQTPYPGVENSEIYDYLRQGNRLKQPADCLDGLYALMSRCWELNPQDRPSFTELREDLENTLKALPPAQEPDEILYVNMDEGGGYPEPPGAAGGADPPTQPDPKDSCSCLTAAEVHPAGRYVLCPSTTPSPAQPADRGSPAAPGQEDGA
Measurement notes: AXL autophosphorylation ELISA in A-172 cells
Measurement context: cellular, Gas6-stimulated, phospho-AXL ELISA
pIC50: −log10 of the molar value.
Result type: pIC50

Which measured pIC50 value corresponds to COc1nc2c(Oc3ccc(NC(=O)C4(C(=O)Nc5ccc(F)cc5)CC4)c(F)c3)ncnc2cc1OCCCN1CCOCC1 [Compound 69] ?
≥ 8.00

Which pIC50 reading was recorded for the compound CNC(=O)c1nc2c(Oc3ccc(NC(=O)C4(C(=O)Nc5ccc(F)cc5)CC4)cc3)ccnc2cc1OC [Compound 172] ?
6.52 to 7.00

# query: pIC50 of entry O=C(Nc1ccc(F)cc1)C1(C(=O)Nc2ccc(Oc3ccnc4cc5c(nc34)OCCO5)c(F)c2)CC1 [Compound 158]
< 6.52

So what does the record say about pIC50 for COCCOc1cc2ncnc(Oc3ccc(NC(=O)C4(C(=O)Nc5ccc(F)cc5)CC4)cc3)c2nc1OC [Compound 78] ?
7.00 to 8.00

So what does the record say about pIC50 for COc1cc2ncnc(Oc3ccc(NC(=O)C4(C(=O)Nc5ccc(F)cc5)CC4)c(Cl)c3)c2nc1OC [Compound 32] ?
7.00 to 8.00

Which pIC50 is listed for COc1cc2ncnc(Oc3ccc(NC(=O)C4(C(=O)Nc5ccc(F)cc5)CC4)cc3)c2cc1C(=O)NCCN1CCCC1 [Compound 118] ?
7.00 to 8.00

Entry COc1cc2nccc(Oc3ccc(NC(=O)C4(C(=O)Nc5ccc(F)cc5)CC4)cc3)c2nc1OC [Compound 139] : reported pIC50 = ?
≥ 8.00
